Test system: Escherichia coli
Assay: Antibacterial activity against Escherichia coli JM 109 by microbroth dilution method
Type: functional
MIC by entry:

> print(dat)
                              smiles.string  reported.property  recorded.result
1  O=C1c2cccc3c(Br)ccc(c23)C(=O)N1CCCn1c[n+](Cc2ccc(F)cc2F)cn1.[Br-]                MIC          4 µg/mL
2  C[C@@H]1CN(c2c(F)c(F)c3c(=O)c(C(=O)O)cn(C4CC4)c3c2F)C[C@H](C)N1                MIC          1 µg/mL
3  O=C1c2cccc3c(Br)ccc(c23)C(=O)N1CCCn1c[n+](Cc2ccc(Cl)cc2Cl)cn1.[Br-]                MIC          4 µg/mL
4  O=C1c2cccc3c(Br)ccc(c23)C(=O)N1CCCn1ccnc1                MIC         16 µg/mL

Prompt line: Requested read-out: MIC. Entry: O=C1c2cccc3c(Br)ccc(c23)C(=O)N1CCCCCn1cncn1
Response line: > 512 µg/mL

Prompt line: Requested read-out: MIC. Entry: O=C1c2cccc3c(Br)ccc(c23)C(=O)N1CCCn1cc[n+](Cc2ccc(F)cc2F)c1.[Br-]
Response line: 8 µg/mL
